Quick reference for self-splicing fitness (ln) among some sequences
test: self-splicing fitness, log relative to wild type (ln ratio); higher = more splicing; Tetrahymena group I intron in knt gene, E. coli kanamycin selection, DiMSum; sequences stand for … in CUCUCU…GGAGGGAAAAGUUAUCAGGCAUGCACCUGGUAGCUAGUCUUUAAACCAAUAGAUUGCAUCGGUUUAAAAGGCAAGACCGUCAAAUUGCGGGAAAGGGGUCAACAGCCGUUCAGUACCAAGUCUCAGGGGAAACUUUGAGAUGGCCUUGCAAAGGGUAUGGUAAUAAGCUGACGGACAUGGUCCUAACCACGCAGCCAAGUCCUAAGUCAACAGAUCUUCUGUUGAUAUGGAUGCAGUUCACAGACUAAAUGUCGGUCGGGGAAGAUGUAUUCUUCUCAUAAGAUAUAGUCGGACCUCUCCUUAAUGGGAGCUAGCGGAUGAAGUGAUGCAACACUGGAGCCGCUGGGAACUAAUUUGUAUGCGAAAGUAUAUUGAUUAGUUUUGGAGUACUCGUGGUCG; details: 30 °C;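 note: selection with 25 µg/mL kanamycin versus none on LB agar overnight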
Experimental endpoint: self-splicing fitness (ln)

UAUUAGCAAUAUUACGGGUG : -0.149
GCAGAGCAAUAUUACGUAAU : -2.29
GGGAAGCAAUAUUACGUACA : -1.02
CUGUAGCAAUAUUACGGGAA : -1.49
UUAUAGCAAUAUUACGAUGC : -2.99
UAUCAGCAAUAUUACGCUAG : -0.545
GCCUAGCAAUAUUACGGCUU : -3.8
GUCGAGCAAUAUUACGGCCU : -2.83
AAAAAGCAAUAUUACGGUCG : -0.302
GACUAGCAAUAUUACGUACC : -1.65
ACUUAGCAAUAUUACGUCGA : -2.06
UCCUAGCAAUAUUACGUGCA : -2.86
GCGGAGCAAUAUUACGUUAG : -2.8
AGCUAGCAAUAUUACGUCGG : -2.97
GCUUAGCAAUAUUACGCGAU : -3.45
UGACAGCAAUAUUACGAGGU : -3.28
UCGAAGCAAUAUUACGGAAG : -1.18
AGAUAGCAAUAUUACGGGCC : -1.68
UAAGAGCAAUAUUACGGUAU : -3.87
GAUCAGCAAUAUUACGUCGC : -1.11
CCUGAGCAAUAUUACGGUGA : -4
AUUGAGCAAUAUUACGACAU : -0.372

====

assay: self-splicing fitness, log relative to wild type (ln ratio); higher = more splicing; Tetrahymena group I intron in knt gene, E. coli kanamycin selection, DiMSum; sequences stand for … in CUCUCU…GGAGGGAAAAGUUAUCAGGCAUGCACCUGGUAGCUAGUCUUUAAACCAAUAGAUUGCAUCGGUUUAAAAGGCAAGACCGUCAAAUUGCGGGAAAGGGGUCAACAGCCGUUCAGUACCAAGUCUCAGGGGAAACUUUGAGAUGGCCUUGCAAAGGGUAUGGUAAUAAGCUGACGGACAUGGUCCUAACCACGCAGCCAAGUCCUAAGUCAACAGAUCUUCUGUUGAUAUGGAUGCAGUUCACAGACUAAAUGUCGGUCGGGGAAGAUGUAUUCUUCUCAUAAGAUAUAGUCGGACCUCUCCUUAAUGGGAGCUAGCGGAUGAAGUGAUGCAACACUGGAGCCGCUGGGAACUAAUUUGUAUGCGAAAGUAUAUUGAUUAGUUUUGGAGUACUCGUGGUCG; settings: 30 °C
Experimental endpoint: self-splicing fitness (ln)

GAAGAGCAAUAUUACGAUCA : -2.36
GAAGAGCAAUAUUACGGUAU : -3.7
UGGCAGCAAUAUUACGGCGG : -0.882
UCCGAGCAAUAUUACGUGGG : -2.8
CAAUAGCAAUAUUACGAAAG : -1.47
GACAAGCAAUAUUACGAAAU : -2.47
UUGGAGCAAUAUUACGUGCG : -1.73
AGCCAGCAAUAUUACGUUAA : -2.44
UAGCAGCAAUAUUACGAAUG : -0.736

====

experiment: self-splicing fitness, log relative to wild type (ln ratio); higher = more splicing; Tetrahymena group I intron in knt gene, E. coli kanamycin selection, DiMSum; sequences stand for … in CUCUCU…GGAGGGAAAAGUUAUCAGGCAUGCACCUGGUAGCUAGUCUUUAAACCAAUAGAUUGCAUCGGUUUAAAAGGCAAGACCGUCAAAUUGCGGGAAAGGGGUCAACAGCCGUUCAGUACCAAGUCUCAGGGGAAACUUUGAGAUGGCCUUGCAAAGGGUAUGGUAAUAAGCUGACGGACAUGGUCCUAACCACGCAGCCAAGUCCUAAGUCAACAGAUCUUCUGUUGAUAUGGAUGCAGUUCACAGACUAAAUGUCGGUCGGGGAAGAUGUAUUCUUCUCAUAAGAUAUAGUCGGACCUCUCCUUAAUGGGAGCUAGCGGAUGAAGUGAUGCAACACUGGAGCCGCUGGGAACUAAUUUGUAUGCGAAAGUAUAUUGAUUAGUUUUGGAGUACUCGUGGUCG; conditions: 37 °C
Recorded self-splicing fitness (ln), one value per entry.
Experimental endpoint: self-splicing fitness (ln)

CAAAAGCAAUAUUACGCGUU : -2.74
UCUAAGCAAUAUUACGUCGC : -1.22
UUAUAGCAAUAUUACGUGAC : -0.826

====

Item-by-item account of self-splicing fitness (ln)
experiment: self-splicing fitness, log relative to wild type (ln ratio); higher = more splicing; Tetrahymena group I intron in knt gene, E. coli kanamycin selection, DiMSum; sequences stand for … in CUCUCU…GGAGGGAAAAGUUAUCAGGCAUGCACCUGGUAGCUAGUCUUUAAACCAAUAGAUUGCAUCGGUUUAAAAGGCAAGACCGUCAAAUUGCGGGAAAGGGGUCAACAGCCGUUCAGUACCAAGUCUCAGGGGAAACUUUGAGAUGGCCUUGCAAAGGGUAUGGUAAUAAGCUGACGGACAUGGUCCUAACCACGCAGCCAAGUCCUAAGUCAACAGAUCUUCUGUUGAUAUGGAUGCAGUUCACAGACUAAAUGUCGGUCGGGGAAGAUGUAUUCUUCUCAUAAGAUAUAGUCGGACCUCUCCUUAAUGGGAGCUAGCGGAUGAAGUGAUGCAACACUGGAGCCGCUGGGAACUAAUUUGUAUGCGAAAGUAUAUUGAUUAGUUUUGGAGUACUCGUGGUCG; conditions: 30 °C
Experimental endpoint: self-splicing fitness (ln)

CUCAAGCAAUAUUACGUGGC : -4.37
UAAAAGCAAUAUUACGUGCG : -0.348
UCCUAGCAAUAUUACGGCGU : -0.736
GGCUAGCAAUAUUACGUUAA : -1.24
CGGUAGCAAUAUUACGCAUA : -4.37
AGCUAGCAAUAUUACGAGCA : -1.16
GCGGAGCAAUAUUACGUAAU : -1.52
AUGCAGCAAUAUUACGAAGA : -1.8
CCCCAGCAAUAUUACGUAGG : -3.78
CACGAGCAAUAUUACGAAAC : -2.02
ACAGAGCAAUAUUACGGGCG : -3.27
UAAUAGCAAUAUUACGGUAC : -3.69

====

Below, each entry is listed with its recorded self-splicing fitness (ln).
experiment: self-splicing fitness, log relative to wild type (ln ratio); higher = more splicing; Tetrahymena group I intron in knt gene, E. coli kanamycin selection, DiMSum; sequences stand for … in CUCUCU…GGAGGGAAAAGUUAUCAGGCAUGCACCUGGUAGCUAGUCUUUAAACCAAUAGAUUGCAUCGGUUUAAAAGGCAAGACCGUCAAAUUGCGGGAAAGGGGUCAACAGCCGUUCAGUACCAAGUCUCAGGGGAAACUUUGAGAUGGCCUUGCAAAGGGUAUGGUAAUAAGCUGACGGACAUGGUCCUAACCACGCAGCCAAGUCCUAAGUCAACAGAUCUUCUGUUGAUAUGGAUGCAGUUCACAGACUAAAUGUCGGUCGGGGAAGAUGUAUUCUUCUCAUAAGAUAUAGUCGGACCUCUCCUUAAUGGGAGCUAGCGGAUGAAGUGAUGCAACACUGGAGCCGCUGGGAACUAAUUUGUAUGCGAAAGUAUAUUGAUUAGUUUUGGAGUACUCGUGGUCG; details: 37 °C
Experimental endpoint: self-splicing fitness (ln)

AAUGAGCAAUAUUACGUAUC : -1.14
ACUUAGCAAUAUUACGACGC : -0.0939
UCGCAGCAAUAUUACGCUCU : -1.35
CUGAAGCAAUAUUACGCGAU : 0.0463
AUACAGCAAUAUUACGUACU : 0.38
UUCGAGCAAUAUUACGCUCA : -1.9
GCAGAGCAAUAUUACGAGUC : -2.39
GCCAAGCAAUAUUACGUGUC : -0.848
CAUAAGCAAUAUUACGGAUC : -1.38
CUAAAGCAAUAUUACGUGGG : -1.09
GGGCAGCAAUAUUACGUUGU : -2.77
AAUUAGCAAUAUUACGCCCA : -0.278
AUCGAGCAAUAUUACGACUA : -0.741
CCCUAGCAAUAUUACGGGCA : -1.55
GAUCAGCAAUAUUACGUCCU : -0.0507
CUCGAGCAAUAUUACGGGCG : -2.1
GAUGAGCAAUAUUACGAUAA : -1.6
CCCAAGCAAUAUUACGCCAC : -1.49
AAAUAGCAAUAUUACGGUGU : -2.05
AUUUAGCAAUAUUACGCGUU : -1.3
AGCAAGCAAUAUUACGGUCC : -0.276
UGCGAGCAAUAUUACGAUGA : -1.4
ACUUAGCAAUAUUACGUAUA : -2.41
GACGAGCAAUAUUACGGCUU : -0.332
AGAAAGCAAUAUUACGACAC : -0.75
ACUGAGCAAUAUUACGCAGA : -1.25
AUCCAGCAAUAUUACGGAGG : -0.607
AACAAGCAAUAUUACGAGAC : -2.67
CCAGAGCAAUAUUACGGGUU : -2.63
AAACAGCAAUAUUACGUGCC : -1.31
CUGGAGCAAUAUUACGAGGU : -2.11
GAAAAGCAAUAUUACGUGUU : -1.18
UGCAAGCAAUAUUACGCAAA : -2
CUGCAGCAAUAUUACGCUAU : -3.04
UACAAGCAAUAUUACGAGCA : -0.0424
CUUCAGCAAUAUUACGUGCA : -3.83
GCCUAGCAAUAUUACGGUAC : -0.822
GUUGAGCAAUAUUACGACUG : 0.138
GAGCAGCAAUAUUACGCGUC : -2.8
UCCCAGCAAUAUUACGGAAG : -2.88
GCGGAGCAAUAUUACGAUAU : -2.02
AACCAGCAAUAUUACGUCCA : -0.595
UACCAGCAAUAUUACGUUAA : -0.903
UCUGAGCAAUAUUACGGAUA : -1.57
AUUAAGCAAUAUUACGAGAU : -1.47
AGUGAGCAAUAUUACGGAGG : -2.67
AUGCAGCAAUAUUACGAACC : -0.688
UGUAAGCAAUAUUACGGUAA : -0.586
ACAUAGCAAUAUUACGCCGU : -1.23
AGGAAGCAAUAUUACGCGUG : -0.951
AACUAGCAAUAUUACGUACC : -0.0487
UCCUAGCAAUAUUACGCUAA : -3.02
